The measured values listed here are drawn from patent US20220324865A1.

TARGET_OF_ASSAY: UniProt:P43115
TEST_DESCRIPTION: Cellular in vitro assay for determining EP3 receptor activity (human EP3 cell line, sulprostone-stimulated calcium luminescence)
EXPERIMENTAL_SETUP: CHO cells expressing human EP3 and mitochondrial Clytin; antagonist mode, sulprostone at EC50; read-out: EP3 CHO mtCLY ANTAG IC50
MEASURE_NAME: pIC50
Give bare numbers, as −log10 of the molar value.

Please review the following examples before continuing.
{"columns": ["COMPOUND", "pIC50"],
 "data": [
  ["Cc1ccc(-c2cn3nc(C(=O)N[C@H](C)CO)c(C4CCC4)c3c(=O)[nH]2)cc1F", 8.71],
  ["Cc1cc(-c2cn3nc(C(=O)N[C@@H](C)C4CC4)c(C4CCC4)c3c(=O)[nH]2)ccc1Cl", 9.00],
  ["O=C(N[C@H]1CCc2ccccc21)c1cc2c(=O)[nH]c(-c3ccc4ccccc4c3)cn2n1", 8.14],
  ["O=C(NC(CO)(CO)C(F)(F)F)c1nn2cc(-c3ccc4ccccc4c3)[nH]c(=O)c2c1C(F)(F)F", 8.15],
  ["Cc1ccc(-c2cn3nc(C(=O)NCC(O)C(F)(F)F)c(C)c3c(=O)[nH]2)cc1F (single isomer, unassigned) [6-410]", 8.29],
  ["O=C(Nc1cccc2ncccc12)c1cc2c(=O)[nH]c(-c3ccc4ccccc4c3)cn2n1", 8.22],
  ["Cc1cc(-c2cn3nc(C(=O)NC4(c5ccc(F)cc5)CN(C)C4)c(C(C)C)c3c(=O)[nH]2)ccc1Cl", 8.53],
  ["C[C@H](NC(=O)c1nn2cc(-c3cc(Cl)c(Cl)cc3F)[nH]c(=O)c2c1C1CC1)C1CC1", 8.80],
  ["O=C(NC1(c2ccc(F)cc2)CN(CC(F)F)C1)c1nn2cc(-c3ccc(Cl)c(F)c3)[nH]c(=O)c2c1C1CC1", 8.89],
  ["CC(NC(=O)c1cc2c(=O)[nH]c(-c3ccc4ccccc4c3)cn2n1)c1ccc(Cl)c(Cl)c1 (centres unmarked) [Example 2-36]", 8.55]
]}

Record pIC50 for all entries; do not skip any.
1. C[C@H](NC(=O)c1nn2cc(-c3ccc(Cl)c(F)c3)[nH]c(=O)c2c1C1CC(F)(F)C1)C1CC1
2. Cc1cc(-c2cn3nc(C(=O)N[C@@H](c4ccc(F)cc4)C(F)(F)CO)c(C(C)C)c3c(=O)[nH]2)ccc1Cl
3. Cc1cccc2ncc(-c3cn4nc(C(=O)N[C@H](CCO)c5ccccc5)cc4c(=O)[nH]3)cc12
4. COc1ccc(CCNC(=O)c2cc3c(=O)[nH]c(-c4ccc5ccccc5c4)cn3n2)cc1OC
5. CC(C)c1c(C(=O)N[C@@H](C)C2CC2)nn2cc(-c3ccc(Cl)c(F)c3)[nH]c(=O)c12

8.67
8.42
8.50
8.06
8.48

For every listed record, write down its pIC50.
1. COc1ccc(C2(NC(=O)c3nn4cc(-c5ccc(Cl)c(C)c5)[nH]c(=O)c4c3C3CC3)CN(C)C2)cc1
2. Cc1ccc(CNC(=O)c2cc3c(=O)[nH]c(-c4ccc5ccccc5c4)cn3n2)cc1
3. Cc1cc(-c2cn3nc(C(=O)N[C@@H](C)C4CC4)c(C(F)(F)C(F)(F)F)c3c(=O)[nH]2)ccc1Cl
4. Cc1c(C(=O)N[C@H](C)c2ccc(F)cc2)nn2c(C)c(-c3ccc4ccccc4c3)[nH]c(=O)c12
5. Cc1cc(-c2cn3nc(C(=O)NC(CO)c4ccc(F)cc4)c(C4CC4)c3c(=O)[nH]2)ccc1C(F)(F)F (racemic)

1. 8.54
2. 8.90
3. 8.92
4. 8.26
5. 8.26

Please give pIC50, item by item, for the list that follows.
1. Cc1cccc2ncc(-c3cn4nc(C(=O)N[C@@H](CO)c5ccccc5)c(C(C)C)c4c(=O)[nH]3)cc12
2. O=C(N[C@H](CCO)c1ccc(F)cc1)c1cc2c(=O)[nH]c(-c3ccc(Cl)c(Cl)c3)cn2n1
3. Cc1cccc2ncc(-c3cn4nc(C(=O)NC(C)c5ccccc5OC(F)F)c(C(C)C)c4c(=O)[nH]3)cc12 (centres unmarked)
4. Cc1ccc(-c2cn3nc(C(=O)NC(CNC(=O)OC(C)(C)C)c4ccc(F)cc4)cc3c(=O)[nH]2)cc1C (centres unmarked)
5. Cc1cc(-c2cn3nc(C(=O)NC4(c5ccccc5)CCOCC4)c(C(F)(F)F)c3c(=O)[nH]2)ccc1Cl
6. Cc1cccc2ncc(-c3cn4nc(C(=O)NC5(c6ccc(Cl)cc6)CCC5)c(C(C)C)c4c(=O)[nH]3)cc12
7. C[C@H](CO)NC(=O)c1nn2cc(-c3ccc4ccccc4c3)[nH]c(=O)c2c1C(F)(F)F

1: 8.81; 2: 8.39; 3: 8.98; 4: 8.31; 5: 8.80; 6: 8.08; 7: 8.11

Give pIC50 for each listed item.
1. Cc1ccc(-c2cn3nc(C(=O)N[C@H](CCO)c4ccc(F)cc4)c(C(F)(F)F)c3c(=O)[nH]2)cc1C
2. N#Cc1c(C(=O)NC2(c3ccc(Cl)cc3)CCC2)nn2cc(-c3ccc4ccccc4c3)[nH]c(=O)c12

1: 9.12; 2: 8.40

---

TARGET_OF_ASSAY: human EP3 receptor (Homo sapiens, UniProt P43115)
Sequence (P43115 whole entry): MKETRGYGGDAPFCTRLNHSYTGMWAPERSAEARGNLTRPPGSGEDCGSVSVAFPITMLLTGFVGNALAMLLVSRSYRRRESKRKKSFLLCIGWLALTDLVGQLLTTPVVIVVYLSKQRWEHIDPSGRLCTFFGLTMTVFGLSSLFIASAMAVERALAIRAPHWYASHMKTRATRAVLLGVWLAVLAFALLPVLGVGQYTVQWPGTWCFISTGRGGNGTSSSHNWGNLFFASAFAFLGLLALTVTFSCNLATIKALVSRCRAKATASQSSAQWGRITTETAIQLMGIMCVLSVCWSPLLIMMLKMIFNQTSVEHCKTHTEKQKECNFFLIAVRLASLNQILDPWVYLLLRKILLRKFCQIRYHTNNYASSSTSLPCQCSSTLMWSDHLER
TEST_DESCRIPTION: Cellular in vitro assay for determining EP3 receptor activity (human EP3 cell line, sulprostone-stimulated calcium luminescence)
EXPERIMENTAL_SETUP: CHO cells expressing human EP3 and mitochondrial Clytin; antagonist mode, sulprostone at EC50; read-out: EP3 CHO mtCLY ANTAG IC50
Protocol: B-1. Cellular In Vitro Assay for Determining EP3 Receptor Activity The identification of antagonists of the EP3 receptor from humans and rats as well as the quantification of the activity of the compounds of the invention was carried out using recombinant cell lines. […] Antagonists inhibit the receptor signaling, leading to reduced calcium release and luminescence. The bioluminescence of the cell lines is detected using a suitable luminometer (Trends Pharmacol. Sci. 1996, 17, 235-237). […]
MEASURE_NAME: IC50 (nM)
Give bare numbers, in nM.

Here's what some known entries look like.
{"columns": ["COMPOUND", "IC50 [nM]"],
 "data": [
  ["COc1cc(-c2cn3nc(C(=O)N[C@@H](c4ccc(F)cc4)C(C)(C)O)c(C4CC4)c3c(=O)[nH]2)ccc1Cl", 1.8],
  ["Cc1cccc2ncc(-c3cn4nc(C(=O)NC(c5cccc(F)c5)C(F)F)c(C(C)C)c4c(=O)[nH]3)cc12 (stereo not shown)", 3.15],
  ["CCC(NC(=O)c1cc2c(=O)[nH]c(-c3ccc4ccccc4c3)cn2n1)C(F)(F)F (stereo not shown)", 4.13]
]}

Let's switch to this compound now.
Name the reported IC50 value associated with the compound CC(NC(=O)c1cc2c(=O)[nH]c(-c3ccc4ccccc4c3)cn2n1)c1ccc2c(c1)OCCO2 (stereo not shown)
5.3

---

Task for the reader: assign each of the following compounds its reported IC50.
TARGET_OF_ASSAY: human EP3 receptor (Homo sapiens, UniProt P43115)
TEST_DESCRIPTION: Cellular in vitro assay for determining EP3 receptor activity (human EP3 cell line, sulprostone-stimulated calcium luminescence)
EXPERIMENTAL_SETUP: CHO cells expressing human EP3 and mitochondrial Clytin; antagonist mode, sulprostone at EC50; read-out: EP3 CHO mtCLY ANTAG IC50
Answers are plain numbers, in nM.

The cases that follow already have their IC50 on record.
{"columns": ["COMPOUND", "MEASURED_RESULT"],
 "data": [
  ["O=C(NC(c1ccc(F)cc1)C1(O)CC1)c1nn2cc(-c3ccc(Cl)c(F)c3)[nH]c(=O)c2c1C1CC1 (single isomer, unassigned) [6-98]", 0.68],
  ["COc1ccc(CCNC(=O)c2cc3c(=O)[nH]c(-c4ccc5c(c4)OCCO5)cn3n2)cc1OC", 2.28],
  ["COc1cc(-c2cn3nc(C(=O)NC4(c5ccc(F)cc5)CN(C)C4)c(C4CC4)c3c(=O)[nH]2)ccc1Cl", 3.4],
  ["Cc1c(C(=O)NCc2cccc(CN3CCCC3)c2)nn2c(C)c(-c3ccc4ccccc4c3)[nH]c(=O)c12", 6.55],
  ["Cc1ccc([C@@H](C)NC(=O)c2nn3c(C)c(-c4ccc5ccccc5c4)[nH]c(=O)c3c2C)cc1", 1.55],
  ["COc1ccc(C(C)NC(=O)c2cc3c(=O)[nH]c(-c4ccc5ccccc5c4)cn3n2)cc1 (stereo not drawn)", 1.65],
  ["COc1cccc(C(CCO)NC(=O)c2nn3cc(-c4cnc5cccc(C)c5c4)[nH]c(=O)c3c2C(C)C)c1 (stereo not drawn)", 0.61],
  ["Cc1ccc(-c2cn3nc(C(=O)N[C@@H](c4ccccc4)[C@@H](O)CO)cc3c(=O)[nH]2)cc1C", 3.73],
  ["Cc1ccc(-c2cn3nc(C(=O)NC(CO)C(F)(F)F)c(C(F)(F)F)c3c(=O)[nH]2)cc1Cl (single isomer, unassigned) [6-162]", 9.55],
  ["Cc1ccc(-c2cn3nc(C(=O)NC4(c5ccc(F)cc5)CCN(C)C4)cc3c(=O)[nH]2)cc1C (racemic) [6-362]", 27]
]}

I'm hoping you can list IC50 for every compound here, please.
1. Cc1ccc(-c2cn3nc(C(=O)N[C@@H](C)C(C)C)c(C4CC4)c3c(=O)[nH]2)cc1Cl
2. NC(=O)[C@H](NC(=O)c1cc2c(=O)[nH]c(-c3ccc4ccccc4c3)cn2n1)c1ccccc1
3. COC[C@@H](NC(=O)c1nn2cc(-c3cnc4cccc(C)c4c3)[nH]c(=O)c2c1C(C)C)c1ccccc1
4. Cc1ccc(-c2cn3nc(C(=O)N[C@@H](C)CCO)c(C4CC4)c3c(=O)[nH]2)cc1Cl
5. Cc1ccc(-c2cn3nc(C(=O)NC(C)C4CCC4)c(C(F)(F)F)c3c(=O)[nH]2)cc1Cl (single isomer, unassigned) [6-195]

1: 0.84; 2: 5.4; 3: 2.85; 4: 2.67; 5: 1.55
